System: A549/ATCC NSCLC
METHOD NOTES: NCI-60 one-dose screen, 48 h
MEASUREMENT CONDITIONS: 10 µM unless noted
The panel holds about 83,000 compounds, 20% with a hit somewhere; the sample as a whole holds those more often. Active and inactive are the calls of the source. How the source made its calls: active means growth percent below 10; inactive means the rest.
Possible outcomes: 1.0 for active, 0.0 for inactive

>  <COMPOUND>
CC(=O)N/C(=C1/OC(C(O)C(O)C(O)CO)CN1C)[P+](c1ccccc1)(c1ccccc1)c1ccccc1 (stereo not drawn)

>  <GROUP LABEL>
0.0

$$$$
>  <COMPOUND>
CCOC(=O)c1c2c(n3ccccc13)C(=O)c1ncccc1C2=O

>  <GROUP LABEL>
1.0

$$$$
>  <COMPOUND>
O=C(O)c1cn(C2CC2)c2cc(N3CCN(C(=O)N/N=C/c4ccccc4)CC3)c(F)cc2c1=O

>  <GROUP LABEL>
0.0

$$$$
>  <COMPOUND>
O=C(CCCCl)NNc1nccc(Nc2ccc(S(=O)(=O)Nc3ccncc3)cc2)n1

>  <GROUP LABEL>
0.0

$$$$
>  <COMPOUND>
O=c1nc(Nc2nc3ccccc3s2)[nH]c(=O)c2ccccc12

>  <GROUP LABEL>
0.0

$$$$
>  <COMPOUND>
N#Cc1c(NC(=O)c2cccs2)[n+]([O-])c2ccc(Cl)cc2[n+]1[O-]

>  <GROUP LABEL>
0.0

$$$$
>  <COMPOUND>
O=C(CCCCCCN1CC(=O)N2[C@@H](C3CCCCC3)c3[nH]c4ccccc4c3C[C@H]2C1=O)NO

>  <GROUP LABEL>
0.0

$$$$
>  <COMPOUND>
Cc1ccc(C)n1/C=C/n1c(C)ccc1C

>  <GROUP LABEL>
0.0

$$$$

====

Entries and their measured growth follow.
Tested on: PC-3 prostate
METHOD NOTES: NCI-60 one-dose screen, 48 h (100 = growth as untreated, 0 = no growth, -100 = all killed)
MEASUREMENT CONDITIONS: 10 µM unless noted
Compounds without any hit were thinned out: in the full panel of roughly 83,000, 20% have a hit.

>  <COMPOUND>
C=CCn1c(SCC(=O)Nc2ccc(C(=O)/C=C/c3cc(OC)c(OC)c(OC)c3)cc2)nnc1-c1cc(-c2ccc(OC)cc2)nc2ccccc12

>  <growth / %>
80

$$$$
>  <COMPOUND>
Nc1ncnc2c1c(-c1ccc(Oc3ccccc3)cc1)nn2CC1SSCC1O (stereo not given)

>  <growth / %>
61.7

$$$$
>  <COMPOUND>
CC1=NN(c2ccc(Cl)cc2)CC1(C)N=O (stereo not given)

>  <growth / %>
91.9

$$$$
>  <COMPOUND>
O=[N+]([O-])/C(=C\c1ccco1)c1ccccc1Cl

>  <growth / %>
45.8

$$$$
>  <COMPOUND>
Nc1c(C(=O)O)cc(Cl)cc1[N+](=O)[O-]

>  <growth / %>
80.8

$$$$
>  <COMPOUND>
COc1ccc2c(c1)c(-c1ccc(-c3cn(C)c4ccc(OC)cc34)[nH]1)cn2C

>  <growth / %>
-11

$$$$
>  <COMPOUND>
CCN1CCN(CC(=O)Nc2nc3ccc(NCc4ccc(Br)cc4)cc3s2)CC1

>  <growth / %>
44.6

$$$$
>  <COMPOUND>
Cc1ccc(O)c(NC(=O)c2ccc(CNc3ccnc(C(F)(F)F)c3)cc2)c1

>  <growth / %>
78.8

$$$$
>  <COMPOUND>
Cc1ccc2[nH]c(=O)c3c(c2c1)OC(N)=C(C#N)C31C(=O)c2cccc3cccc1c23 (stereo not given)

>  <growth / %>
89.3

$$$$
>  <COMPOUND>
N#Cc1c(NC(=O)c2cccs2)[n+]([O-])c2ccc(Cl)cc2[n+]1[O-]

>  <growth / %>
96

$$$$
